- Test system: primary ALL patient cells (S048)
- assay.overview: viability relative to DMSO control (fraction); higher = less drug effect (more viable cells)
- assay.context: 0.08 µM; 48 h
Listed here: items and their measured viability.

# annotated cases, reported viability shown
molecule.smiles	study.system	viability
O=C(Nc1nc2ccccc2n1CCN1CCOCC1)c1cccc([N+](=O)[O-])c1	primary ALL patient cells (S048)	0.836
CC(C)c1cc(C(=O)N2Cc3ccc(CN4CCN(C)CC4)cc3C2)c(O)cc1O	primary ALL patient cells (S048)	0.477
CC(C)c1cc(-c2n[nH]c(=O)n2-c2ccc3c(ccn3C)c2)c(O)cc1O	primary ALL patient cells (S048)	0.517

Could you now consider this next compound?
Asked: Suppose we examine the compound Cc1sc2c(c1C)C(c1ccc(Cl)cc1)=N[C@@H](CC(=O)Nc1ccc(O)cc1)c1nnc(C)n1-2 ; what viability value has been reported?
Given back: 1.04

====

Listed here: items and their measured viability.
- Test system: primary AML patient cells (S009)
- assay.overview: viability relative to DMSO control (fraction); higher = less drug effect (more viable cells)
- assay.context: 0.016 µM; 48 h
Form rule: numeric answer, no unit written next to it.

# annotated cases, reported viability shown
molecule.smiles	measured.attribute	result.value
CN1CC[C@H](c2c(O)cc(O)c3c(=O)cc(-c4ccccc4Cl)oc23)[C@H](O)C1	viability	0.898
CC[C@H](Nc1ncnc2[nH]cnc12)c1nc2cccc(F)c2c(=O)n1-c1ccccc1	viability	1.02
CC1(COc2ccc3c(c2)ncn3-c2ccc3cccc(N4CCC(N)CC4)c3n2)COC1	viability	0.926

Could you now consider this next molecule?
Asked: Entry O=C(Nc1nc2ccccc2n1CCN1CCOCC1)c1cccc([N+](=O)[O-])c1 , system primary AML patient cells (S009): what viability was measured?
Given back: 1.01

====

- Test system: primary AML patient cells (S089)
- assay.overview: viability relative to DMSO control (fraction); higher = less drug effect (more viable cells)
- assay.context: 0.024 µM; 48 h
measured.attribute: viability
Form rule: numeric answer, no unit written next to it.

molecule.smiles	result.value
Oc1ccc(/C=C/c2cc(O)cc(O)c2)cc1	0.819
CS(=O)(=O)c1ccc(C(=O)Nc2ccc(Cl)c(-c3ccccn3)c2)c(Cl)c1	0.87
Nc1nc(=S)c2[nH]cnc2[nH]1	0.765

Could you now consider this next molecule?
Asked: Suppose we examine the molecule N#Cc1ccnc(N2C(=O)CC[C@H]2C(=O)N(c2cncc(F)c2)[C@H](C(=O)NC2CC(F)(F)C2)c2ccccc2Cl)c1 ; what viability value has been reported?
Given back: 0.664

====

- System: primary AML patient cells (S056)
- assay.overview: viability relative to DMSO control (fraction); higher = less drug effect (more viable cells)
- assay.context: 3 µM; 48 h
measured.attribute: viability
Form rule: numeric answer, no unit written next to it.

# annotated cases, reported viability shown
compound	measured.attribute	result.value
O=C(O)CSc1cc(NS(=O)(=O)c2ccc(Br)cc2)c2ccccc2c1O [UMI-77]	viability	0.999
Cc1cc(Nc2ncc(Cl)c(Nc3ccccc3S(=O)(=O)C(C)C)n2)c(OC(C)C)cc1C1CCNCC1 [Ceritinib]	viability	0.375
Oc1ccc(/C=C/c2cc(O)cc(O)c2)cc1 [Resveratrol]	viability	0.596
Nc1nc(=S)c2[nH]cnc2[nH]1 [Thioguanin]	viability	0.339
CCN1CCN(Cc2ccc(Nc3ncc(F)c(-c4cc(F)c5nc(C)n(C(C)C)c5c4)n3)nc2)CC1	viability	0.136

Could you now consider this next compound?
Asked: Suppose we examine the compound C[C@@H](Oc1cc(-c2cnn(C3CCNCC3)c2)cnc1N)c1c(Cl)ccc(F)c1Cl [Crizotinib] ; what viability value has been reported?
Given back: 0.857

====

- Test system: primary AML patient cells (S012)
- assay.overview: viability relative to DMSO control (fraction); higher = less drug effect (more viable cells)
- assay.context: 0.6 µM; 48 h
measured.attribute: viability
Form rule: numeric answer, no unit written next to it.

# annotated cases, reported viability shown
molecule.smiles	result.value
O=C(c1cc(Cc2n[nH]c(=O)c3ccccc23)ccc1F)N1CCN(C(=O)C2CC2)CC1	0.955
Nc1nc(Cl)nc2c1ncn2[C@@H]1O[C@H](CO)[C@@H](O)[C@@H]1F	0.459
Nc1nc(=S)c2[nH]cnc2[nH]1	0.946
O=C(Nc1cccc(C(F)(F)F)c1)Nc1cc(S(=O)(=O)NC2CC2)ccc1-c1ccsc1	1

Asked: Entry O=C(O)CSc1cc(NS(=O)(=O)c2ccc(Br)cc2)c2ccccc2c1O , system primary AML patient cells (S012): what viability was measured?
Given back: 1.09

====

Listed here: items and their measured viability.
- System: primary AML patient cells (S091)
- assay.overview: viability relative to DMSO control (fraction); higher = less drug effect (more viable cells)
- assay.context: 0.008 µM; 48 h
Form rule: numeric answer, no unit written next to it.

# annotated cases, reported viability shown
molecule.smiles	study.system	measured.attribute	result.value
COc1cccc2c1C(=O)c1c(O)c3c(c(O)c1C2=O)C[C@@](O)(C(=O)CO)C[C@@H]3O[C@H]1C[C@H](N)[C@H](O)[C@H](C)O1	primary AML patient cells (S091)	viability	0.905
Nc1ccc2ncnc(NCCc3ccc(Oc4ccccc4)cc3)c2c1	primary AML patient cells (S091)	viability	0.891
CCc1cnn2c(NCc3ccc[n+]([O-])c3)cc(N3CCCC[C@H]3CCO)nc12	primary AML patient cells (S091)	viability	0.171

Could you now consider this next compound?
Asked: Suppose we examine the compound CC#CC(=O)N1CCC[C@H]1c1nc(-c2ccc(C(=O)Nc3ccccn3)cc2)c2c(N)nccn12 ; what viability value has been reported?
Given back: 0.945

====

- Test system: primary BL patient cells (S005)
- assay.overview: viability relative to DMSO control (fraction); higher = less drug effect (more viable cells)
- assay.context: 0.04 µM; 48 h
Threshold-based label: viability under 0.9 gives yes (1), viability not under 0.9 gives no (0).

The following compounds have reported results that may help.
compound	category.label
Cc1nc(Nc2ncc(C(=O)Nc3c(C)cccc3Cl)s2)cc(N2CCN(CCO)CC2)n1 [Dasatinib]	yes (1)
COc1cccc2c1C(=O)c1c(O)c3c(c(O)c1C2=O)C[C@@](O)(C(=O)CO)C[C@@H]3O[C@H]1C[C@H](N)[C@H](O)[C@H](C)O1 [Doxorubicin]	no (0)
Nc1ccc2ncnc(NCCc3ccc(Oc4ccccc4)cc3)c2c1 [EVP4593]	no (0)
O=C1c2c(O)ccc(O)c2C(=O)c2c(NCCNCCO)ccc(NCCNCCO)c21 [Mitoxantrone]	no (0)
CCc1cnn2c(NCc3ccc[n+]([O-])c3)cc(N3CCCC[C@H]3CCO)nc12 [Dinaciclib]	yes (1)
Nc1cccc2c1CN(C1CCC(=O)NC1=O)C2=O (configuration not stated) [Lenalidomide]	no (0)

Now examine the next entry.
Asked: Lab note: viability threshold 0.9. Does this compound come in strictly under it? C/C=C1\NC(=O)[C@H]2CSSCC/C=C/[C@H](CC(=O)N[C@H](C(C)C)C(=O)N2)OC(=O)[C@H](C(C)C)NC1=O [Romidepsin]
Given back: yes (1)

====

- System: primary AML patient cells (S009)
- assay.overview: viability relative to DMSO control (fraction); higher = less drug effect (more viable cells)
- assay.context: 0.4 µM; 48 h
measured.attribute: viability
Form rule: numeric answer, no unit written next to it.

molecule.smiles	viability
Cc1sc2c(c1C)C(c1ccc(Cl)cc1)=N[C@@H](CC(=O)Nc1ccc(O)cc1)c1nnc(C)n1-2	0.6
CC1(COc2ccc3c(c2)ncn3-c2ccc3cccc(N4CCC(N)CC4)c3n2)COC1	0.921

Asked: Suppose we examine the molecule CC(C)c1cc(C(=O)N2Cc3ccc(CN4CCN(C)CC4)cc3C2)c(O)cc1O ; what viability value has been reported?
Given back: 0.568

Asked: Suppose we examine the molecule CC(C)c1cc(-c2n[nH]c(=O)n2-c2ccc3c(ccn3C)c2)c(O)cc1O ; what viability value has been reported?
Given back: 0.56

====

Listed here: items and their measured viability.
- Test system: primary B-PLL patient cells (S016)
- assay.overview: viability relative to DMSO control (fraction); higher = less drug effect (more viable cells)
- assay.context: 3 µM; 48 h
Form rule: numeric answer, no unit written next to it.

# annotated cases, reported viability shown
molecule.smiles	viability
N#CC[C@H](C1CCCC1)n1cc(-c2ncnc3[nH]ccc23)cn1	0.965
O=C(c1cc(Cc2n[nH]c(=O)c3ccccc23)ccc1F)N1CCN(C(=O)C2CC2)CC1	0.8
CCc1nc(C(N)=O)c(Nc2ccc(N3CCC(N4CCN(C)CC4)CC3)c(OC)c2)nc1NC1CCOCC1	0.911

Could you now consider this next compound?
Asked: Suppose we examine the compound Oc1ccc(/C=C/c2cc(O)cc(O)c2)cc1 ; what viability value has been reported?
Given back: 0.907

====

- Tested on: primary B-PLL patient cells (S016)
- assay.overview: viability relative to DMSO control (fraction); higher = less drug effect (more viable cells)
- assay.context: 0.04 µM; 48 h
Threshold-based label: viability under 0.4 gives YES, viability not under 0.4 gives NO.

The following compounds have reported results that may help.
compound	study.system	category.label
CC#CC(=O)N1CCC[C@H]1c1nc(-c2ccc(C(=O)Nc3ccccn3)cc2)c2c(N)nccn12 [Acalabrutinib (ACP-196)]	primary B-PLL patient cells (S016)	NO
O=C1c2c(O)ccc(O)c2C(=O)c2c(NCCNCCO)ccc(NCCNCCO)c21 [Mitoxantrone]	primary B-PLL patient cells (S016)	YES
Nc1cccc2c1CN(C1CCC(=O)NC1=O)C2=O (stereo not given) [Lenalidomide]	primary B-PLL patient cells (S016)	NO

Asked: Lab note: viability threshold 0.4. Does this compound come in strictly under it? C=CC(=O)N1CCC[C@@H](n2nc(-c3ccc(Oc4ccccc4)cc3)c3c(N)ncnc32)C1 [Ibrutinib]
Given back: NO

Reference for the values: the supplement of paper PMC10733146
